activity coefficient values for the molecules below.
# PROTOCOL NOTES: activity coefficient (dimensionless); of the first substance listed, at infinite dilution; xn = mol fraction of the nth substance listed
# TEST PARAMETERS: 378.15 K; 101.33 kPa; Liquid; Chromatography; x1 = 0
TEST READOUT: activity coefficient

[[record]]
molecule = "CCCc1ccccc1 [propylbenzene] + CCCCCCCCCCCC[N+](C)(C)CCOc1ccccc1.N#C[N-]C#N"
numeric_result = 2.01

[[record]]
molecule = "CCC(C)CC [3-methylpentane] + CCCCCCCCCCCC[N+](C)(C)CCOc1ccccc1.N#C[N-]C#N"
numeric_result = 5.5

[[record]]
molecule = "C=CCCC [1-pentene] + CCCCCCCCCCCC[N+](C)(C)CCOc1ccccc1.N#C[N-]C#N"
numeric_result = 3.61


----------
# PROTOCOL NOTES: activity coefficient (dimensionless); of the first substance listed, at infinite dilution; xn = mol fraction of the nth substance listed
# TEST PARAMETERS: 358.15 K; 101.33 kPa; Liquid; Chromatography; x1 = 0
Lab note - cut at 1 for activity coefficient: yes (1) if strictly below, no (0) if not.

[[record]]
compound = "CCCCO [butan-1-ol] + CCCCCCCCCCCC[N+](C)(C)CCOc1ccccc1.N#C[N-]C#N"
assigned_class = "yes (1)"

[[record]]
compound = "CCCCCC [hexane] + CCCCCCCCCCCC[N+](C)(C)CCOc1ccccc1.N#C[N-]C#N"
assigned_class = "no (0)"

[[record]]
compound = "C1CCCCCCC1 [cyclooctane] + CCCCCCCCCCCC[N+](C)(C)CCOc1ccccc1.O=S(=O)([N-]S(=O)(=O)C(F)(F)F)C(F)(F)F"
assigned_class = "no (0)"

[[record]]
compound = "CCC(=O)CC [pentan-3-one] + CCCCCCCCCCCC[N+](C)(C)CCOc1ccccc1.O=S(=O)([N-]S(=O)(=O)C(F)(F)F)C(F)(F)F"
assigned_class = "yes (1)"

[[record]]
compound = "CCCCCO [pentan-1-ol] + CCCCCCCCCCCC[N+](C)(C)CCOc1ccccc1.N#C[N-]C#N"
assigned_class = "yes (1)"

[[record]]
compound = "C=CCCCCCCCC [1-decene] + CCCCCCCCCCCC[N+](C)(C)CCOc1ccccc1.O=S(=O)([N-]S(=O)(=O)C(F)(F)F)C(F)(F)F"
assigned_class = "no (0)"


----------
activity coefficient values for the molecules below.
# PROTOCOL NOTES: activity coefficient (dimensionless); of the first substance listed, at infinite dilution; xn = mol fraction of the nth substance listed
# TEST PARAMETERS: 378.15 K; 101.33 kPa; Liquid; Chromatography; x1 = 0
TEST READOUT: activity coefficient

[[record]]
molecule = "CCCCCO [pentan-1-ol] + CCCCCCCCCCCC[N+](C)(C)CCOc1ccccc1.N#C[N-]C#N"
test_readout = "activity coefficient"
result = 0.542

[[record]]
molecule = "CCCCCCC [heptane] + CCCCCCCCCCCC[N+](C)(C)CCOc1ccccc1.N#C[N-]C#N"
test_readout = "activity coefficient"
result = 6.41

[[record]]
molecule = "CCC(C)(C)C [2,2-dimethylbutane] + CCCCCCCCCCCC[N+](C)(C)CCOc1ccccc1.N#C[N-]C#N"
test_readout = "activity coefficient"
result = 6.35

[[record]]
molecule = "Cc1cccc(C)c1 [1,3-dimethylbenzene] + CCCCCCCCCCCC[N+](C)(C)CCOc1ccccc1.N#C[N-]C#N"
test_readout = "activity coefficient"
result = 1.66

[[record]]
molecule = "CCCC=O [butanal] + CCCCCCCCCCCC[N+](C)(C)CCOc1ccccc1.N#C[N-]C#N"
test_readout = "activity coefficient"
result = 0.828

[[record]]
molecule = "CCCOCCC [dipropyl ether] + CCCCCCCCCCCC[N+](C)(C)CCOc1ccccc1.N#C[N-]C#N"
test_readout = "activity coefficient"
result = 3.76

[[record]]
molecule = "CCO [ethanol] + CCCCCCCCCCCC[N+](C)(C)CCOc1ccccc1.N#C[N-]C#N"
test_readout = "activity coefficient"
result = 0.453

[[record]]
molecule = "CC(C)OC(C)C [diisopropyl ether] + CCCCCCCCCCCC[N+](C)(C)CCOc1ccccc1.N#C[N-]C#N"
test_readout = "activity coefficient"
result = 4.43


----------
# PROTOCOL NOTES: activity coefficient (dimensionless); of the first substance listed, at infinite dilution; xn = mol fraction of the nth substance listed
# TEST PARAMETERS: 358.15 K; 101.33 kPa; Liquid; Chromatography; x1 = 0
activity coefficient values for the compounds below.
TEST READOUT: activity coefficient

[[record]]
compound = "C=COC(C)=O [vinyl acetate] + CCCCCCCCCCCC[N+](C)(C)CCOc1ccccc1.O=S(=O)([N-]S(=O)(=O)C(F)(F)F)C(F)(F)F"
numeric_result = 0.473

[[record]]
compound = "CCC(C)O (centres undefined) [butan-2-ol] + CCCCCCCCCCCC[N+](C)(C)CCOc1ccccc1.O=S(=O)([N-]S(=O)(=O)C(F)(F)F)C(F)(F)F"
numeric_result = 1.12

[[record]]
compound = "CCO [ethanol] + CCCCCCCCCCCC[N+](C)(C)CCOc1ccccc1.N#C[N-]C#N"
numeric_result = 0.438

[[record]]
compound = "C=CCCCCCCCC [1-decene] + CCCCCCCCCCCC[N+](C)(C)CCOc1ccccc1.N#C[N-]C#N"
numeric_result = 6.99

[[record]]
compound = "CCCO [propan-1-ol] + CCCCCCCCCCCC[N+](C)(C)CCOc1ccccc1.O=S(=O)([N-]S(=O)(=O)C(F)(F)F)C(F)(F)F"
numeric_result = 1.14

[[record]]
compound = "Cc1cccc(C)c1 [1,3-dimethylbenzene] + CCCCCCCCCCCC[N+](C)(C)CCOc1ccccc1.N#C[N-]C#N"
numeric_result = 1.56

[[record]]
compound = "CC(C)CC(C)(C)C [2,2,4-trimethylpentane] + CCCCCCCCCCCC[N+](C)(C)CCOc1ccccc1.N#C[N-]C#N"
numeric_result = 7.32

[[record]]
compound = "COC(C)=O [methyl ethanoate] + CCCCCCCCCCCC[N+](C)(C)CCOc1ccccc1.O=S(=O)([N-]S(=O)(=O)C(F)(F)F)C(F)(F)F"
numeric_result = 0.595

[[record]]
compound = "CCC(=O)CC [pentan-3-one] + CCCCCCCCCCCC[N+](C)(C)CCOc1ccccc1.N#C[N-]C#N"
numeric_result = 1.02

[[record]]
compound = "C=CCCCC [hex-1-ene] + CCCCCCCCCCCC[N+](C)(C)CCOc1ccccc1.O=S(=O)([N-]S(=O)(=O)C(F)(F)F)C(F)(F)F"
numeric_result = 2.36

[[record]]
compound = "CCCCCCCCC [nonane] + CCCCCCCCCCCC[N+](C)(C)CCOc1ccccc1.N#C[N-]C#N"
numeric_result = 8.08

[[record]]
compound = "C=Cc1ccccc1 [styrene] + CCCCCCCCCCCC[N+](C)(C)CCOc1ccccc1.O=S(=O)([N-]S(=O)(=O)C(F)(F)F)C(F)(F)F"
numeric_result = 0.788

[[record]]
compound = "CCc1ccccc1 [ethylbenzene] + CCCCCCCCCCCC[N+](C)(C)CCOc1ccccc1.O=S(=O)([N-]S(=O)(=O)C(F)(F)F)C(F)(F)F"
numeric_result = 1.09

[[record]]
compound = "C=CCCCCCC [oct-1-ene] + CCCCCCCCCCCC[N+](C)(C)CCOc1ccccc1.O=S(=O)([N-]S(=O)(=O)C(F)(F)F)C(F)(F)F"
numeric_result = 3.32


----------
# PROTOCOL NOTES: activity coefficient (dimensionless); of the first substance listed, at infinite dilution; xn = mol fraction of the nth substance listed
# TEST PARAMETERS: 318.15 K; 101.33 kPa; Liquid; Chromatography; x1 = 0
activity coefficient values for the compounds below.
TEST READOUT: activity coefficient

[[record]]
compound = "C=C(C)c1ccccc1 [(1-methylethenyl)benzene] + CCCCCCCCCCCC[N+](C)(C)CCOc1ccccc1.O=S(=O)([N-]S(=O)(=O)C(F)(F)F)C(F)(F)F"
result = 0.784

[[record]]
compound = "CO [methanol] + CCCCCCCCCCCC[N+](C)(C)CCOc1ccccc1.O=S(=O)([N-]S(=O)(=O)C(F)(F)F)C(F)(F)F"
result = 1.1

[[record]]
compound = "C1CCCCCCC1 [cyclooctane] + CCCCCCCCCCCC[N+](C)(C)CCOc1ccccc1.O=S(=O)([N-]S(=O)(=O)C(F)(F)F)C(F)(F)F"
result = 2.57

[[record]]
compound = "c1ccsc1 [thiophene] + CCCCCCCCCCCC[N+](C)(C)CCOc1ccccc1.O=S(=O)([N-]S(=O)(=O)C(F)(F)F)C(F)(F)F"
result = 0.534

[[record]]
compound = "C=CCCC [1-pentene] + CCCCCCCCCCCC[N+](C)(C)CCOc1ccccc1.O=S(=O)([N-]S(=O)(=O)C(F)(F)F)C(F)(F)F"
result = 1.83

[[record]]
compound = "c1ccncc1 [pyridine] + CCCCCCCCCCCC[N+](C)(C)CCOc1ccccc1.O=S(=O)([N-]S(=O)(=O)C(F)(F)F)C(F)(F)F"
result = 0.278


Values from the NIST ThermoML archive (doi:10.1016/j.fluid.2018.09.024)
